# Tested on: Morningglory
# measurement_protocol: Pre-emergence herbicide test
# Format: in vivo
# condition_set: Ipomoea, 1.12 kg/ha, read-out: % plant inhibition (Mogl)
Recorded inhibition at 1120 g/ha for the following molecules
// note: answer is a bare numeric in %

Some solved cases for reference:
{"columns": ["molecule", "study_system", "measurement_unit", "inhibition at 1120 g/ha"],
 "data": [
  ["Cn1nc(-c2cc(CO)c(Cl)cc2F)c(Cl)c1C(F)(F)F [Compound 122]", "Morningglory", "%", 80],
  ["CC(C)CCOC(=O)c1cc(-c2nn(C)c(C(F)(F)F)c2Cl)c(F)cc1Cl [Compound 141]", "Morningglory", "%", 80],
  ["CCOC(=O)C(C)OC(=O)c1cc(-c2nn(C)c(C(F)(F)F)c2Cl)c(F)cc1Cl (centres unmarked) [Compound 138]", "Morningglory", "%", 100],
  ["Cn1nc(-c2cc(C(C)(C)C#N)c(Cl)cc2F)c(Cl)c1C(F)(F)F [Compound 103]", "Morningglory", "%", 60],
  ["Cn1nc(-c2cc(/C=C/C(=O)O)c(Cl)cc2F)c(Cl)c1C(F)(F)F [Compound 351]", "Morningglory", "%", 80],
  ["CC(C)OC(=O)COc1cc(-c2nn(C)c(C(F)(F)F)c2Cl)c(F)cc1Cl [Compound 282]", "Morningglory", "%", 90],
  ["Cn1nc(-c2cc(C3SCCS3)c(Cl)cc2F)c(Cl)c1C(F)(F)F [Compound 101]", "Morningglory", "%", 80]
]}

Continue with the next molecule.
Recall the recorded inhibition at 1120 g/ha for CC(C)OC(=O)COc1cc(-c2nn(C)c(C(F)(F)Cl)c2Cl)c(F)cc1Cl [Compound 285] with Morningglory and state it.
100
